# target-of-assay: T1, CD52 human leukocyte antigen (human, UniProt P31358 25-36)
# T1 construct: whole, on cells; also called CD52 antigen
# T1 chain (looked up): GQNDTSQTSSPS
# test-protocol: FACS on HUT-78 cells (CD52+), FITC anti-human IgG Fc, median fluorescence, 4-parameter fit; titre = 50% of maximum binding
readout: EC50 (µg/mL)
Report the figure in µg/mL without appending any unit label.

Worked cases, EC50 given:
binder	EC50 / µg/mL
DIVH1/DIVK3 (antibody, human IgG1, V domains shown, also called DIVHv1/DIVKv3) VH: EVQLLESGGGLVQPGGSLRLSCAGSGFTFTDFYMNWVRQAPGKGLEWVGFIRDKAKGYTTEYNPSVKGRFTISRDNSKNTLYLQMNSLRAEDTAVYYCAREGHTAAPFDYWGQGTLVTVSS VL: DIQMTQSPSSLSASVGDRVTITCRASQNIDKYLNWYQQKPGKAPKLLIYNTNNLQSGVPSRFSGSGSGTDFTLTISSLQPEDIATYYCLQHISRPRTFGTGTKLELK	1.71
DIVH4/DIVK1 (antibody, human IgG1, V domains shown, also called DIVHv4/DIVKv1) VH: EVQLLESGGGLVQPGGSLRLSCAGSGFTFTDFYMNWVRQAPGKGLEWVGFIRDKAKGYTTEYNPSVKGRFTISRDNAKNSLYLQMNSLRAEDTAVYYCAREGHTAAPFDYWGQGTLVTVSS VL: DIQMTQSPSSLSASVGDRVTITCRASQNIDKYLNWYQQKPGKAPKSLIYNTNNLQSGVPSRFSGSGSGTDFTLTISSLQPEDIATYYCLQHISRPRTFGTGTKLELK	4.43

Next item in the queue.
What does the record list as EC50 for DIVH4/DIVK2 (antibody, human IgG1, V domains shown, also called DIVHv4/DIVKv2) VH: EVQLLESGGGLVQPGGSLRLSCAGSGFTFTDFYMNWVRQAPGKGLEWVGFIRDKAKGYTTEYNPSVKGRFTISRDNAKNSLYLQMNSLRAEDTAVYYCAREGHTAAPFDYWGQGTLVTVSS VL: DIQMTQSPSSLSASVGDRVTITCKASQNIDKYLNWYQQKPGKAPKLLIYNTNNLQTGVPSRFSGSGSGTDFTLTISSLQPEDIATYYCLQHISRPRTFGTGTKLELK ?
1.59
